# study-target: MERTK (UniProt Q12866)
# Sequence (Q12866 whole entry, looked up): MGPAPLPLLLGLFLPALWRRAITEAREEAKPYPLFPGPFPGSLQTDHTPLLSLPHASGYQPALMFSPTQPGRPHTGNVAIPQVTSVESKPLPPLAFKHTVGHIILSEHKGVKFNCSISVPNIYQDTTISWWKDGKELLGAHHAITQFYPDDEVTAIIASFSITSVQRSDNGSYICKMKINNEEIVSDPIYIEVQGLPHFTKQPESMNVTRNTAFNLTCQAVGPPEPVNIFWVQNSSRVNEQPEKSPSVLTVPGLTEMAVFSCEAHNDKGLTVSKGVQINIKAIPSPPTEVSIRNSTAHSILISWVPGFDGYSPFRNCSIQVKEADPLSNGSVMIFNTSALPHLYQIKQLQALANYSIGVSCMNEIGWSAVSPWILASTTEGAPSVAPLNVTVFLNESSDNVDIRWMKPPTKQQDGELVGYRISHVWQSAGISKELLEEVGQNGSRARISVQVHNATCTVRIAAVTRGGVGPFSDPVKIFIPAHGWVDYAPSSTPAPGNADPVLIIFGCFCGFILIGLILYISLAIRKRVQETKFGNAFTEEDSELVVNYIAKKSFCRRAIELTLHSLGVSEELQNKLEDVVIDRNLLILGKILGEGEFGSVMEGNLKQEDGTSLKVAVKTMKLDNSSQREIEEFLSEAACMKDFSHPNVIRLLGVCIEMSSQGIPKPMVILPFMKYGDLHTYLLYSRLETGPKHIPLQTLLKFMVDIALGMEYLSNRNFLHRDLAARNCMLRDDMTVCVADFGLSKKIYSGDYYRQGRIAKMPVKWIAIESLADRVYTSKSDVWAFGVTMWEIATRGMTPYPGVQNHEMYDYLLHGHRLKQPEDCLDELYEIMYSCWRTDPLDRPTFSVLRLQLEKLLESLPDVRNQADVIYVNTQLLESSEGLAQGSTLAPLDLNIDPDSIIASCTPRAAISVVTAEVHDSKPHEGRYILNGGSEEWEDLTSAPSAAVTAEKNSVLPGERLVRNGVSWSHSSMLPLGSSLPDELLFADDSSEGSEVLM
# assay-comment: phosphorylation enrichment, bacterial display (enrichment ratio); higher = better substrate or ligand; peptides without Tyr show the background;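 note: 11-residue human phosphosite peptides and single-mutation variants displayed on the E. coli surface, counted by deep sequencing, each peptide's frequency after selection divided by its frequency in the unselected input library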;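 note: frequency after pTyr selection over input frequency; kinase dosed for 20-30% of maximal phosphorylation in three min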

residue-codes: DPHQQYFIAMD [TBX15_Y159_YF]
phosphorylation enrichment: 0.511
--
residue-codes: STDDGYIDLQF [TMEM230_Y29]
phosphorylation enrichment: 0.513
--
residue-codes: DGKFSYLKVGH [GRM3_Y480_G475D_YF]
phosphorylation enrichment: 0.505
--
residue-codes: MSSLPYMKVIF [SLC4A11_Y853_M856V]
phosphorylation enrichment: 0.507
--
residue-codes: NNHGNYIVHLG [ETFDH_Y172_R175H]
phosphorylation enrichment: 0.493
--
residue-codes: SQAPGYSFTAA [CYCS_Y47_G42S_YF]
phosphorylation enrichment: 0.49

###

# study-target: Fyn (UniProt P06241)
# Sequence (P06241 whole entry, looked up): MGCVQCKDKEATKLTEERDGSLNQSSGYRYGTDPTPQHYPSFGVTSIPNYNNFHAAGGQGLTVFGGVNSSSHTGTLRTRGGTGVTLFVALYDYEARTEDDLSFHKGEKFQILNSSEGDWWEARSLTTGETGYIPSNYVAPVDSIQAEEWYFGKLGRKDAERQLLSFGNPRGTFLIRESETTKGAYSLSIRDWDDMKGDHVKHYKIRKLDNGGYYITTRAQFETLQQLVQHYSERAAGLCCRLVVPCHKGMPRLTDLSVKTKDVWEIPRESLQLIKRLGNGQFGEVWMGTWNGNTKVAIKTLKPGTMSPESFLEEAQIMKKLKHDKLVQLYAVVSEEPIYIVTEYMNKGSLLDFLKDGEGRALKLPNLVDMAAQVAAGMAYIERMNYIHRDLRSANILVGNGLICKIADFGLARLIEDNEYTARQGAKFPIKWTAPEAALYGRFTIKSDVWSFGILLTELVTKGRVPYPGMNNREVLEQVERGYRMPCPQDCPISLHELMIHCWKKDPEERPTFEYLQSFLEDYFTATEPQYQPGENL
# assay-comment: phosphorylation enrichment, bacterial display (enrichment ratio); higher = better substrate or ligand; peptides without Tyr show the background
Outcome label depends on phosphorylation enrichment relative to 0.5: at/above gives Fulfilled, below gives Not fulfilled.

residue-codes: TGTQLYGRFGS [ITGA2B_Y384]
group: Fulfilled
--
residue-codes: KLFFIYTSGTT [SLC27A4_Y245_YF]
group: Not fulfilled
--
residue-codes: QSAGQYSSQGL [TNNI3K_Y788]
group: Not fulfilled
--
residue-codes: SLNAVYPRAGR [OAS3_Y376_S381R]
group: Not fulfilled
--
residue-codes: LLKKIYLMLDN [STAT1_Y203_M202I]
group: Fulfilled
--
residue-codes: SGEKPYKCSEC [ZNF543_Y283]
group: Fulfilled
--
residue-codes: SSTAMYSAPGR [PSMB1_Y8]
group: Not fulfilled
--
residue-codes: RELGEYALAEY [ALDH1A3_Y492]
group: Fulfilled
--
residue-codes: LEAVSYSSRFA [RNLS_Y190_YF]
group: Not fulfilled
--
residue-codes: DFLSSYSAVNQ [OAT_Y85]
group: Not fulfilled
--
residue-codes: MFNPCYGLFEY [NEDD4L_Y680_Y679C]
group: Fulfilled
--
residue-codes: CTTNHYNFMCN [TP53_Y234_I232N_YF]
group: Not fulfilled
--
residue-codes: QGQHWYSSSDT [CASP10_Y9_K14T]
group: Fulfilled
--
residue-codes: VLALWYYYLTH [ZDHHC23_Y127]
group: Fulfilled
--
residue-codes: YAANYYKLLGN [ROR2_Y646_D644N]
group: Not fulfilled
--
residue-codes: TEALFYTDDTA [ADPRS_Y75_YF]
group: Fulfilled
--
residue-codes: VKPENYRRLDV [VHL_Y175_I180V]
group: Not fulfilled
--
residue-codes: PVQAAYRKVVA [HBB_Y131_Q132R]
group: Not fulfilled
--
residue-codes: GSCQEYTGAPF [NAXD_Y85_G81S_YF]
group: Not fulfilled
--
residue-codes: VRRVGYVSGWG [HP_Y280_G276R]
group: Not fulfilled
--
residue-codes: FGLDRYQCDCT [PTGS1_Y54]
group: Fulfilled
--
residue-codes: NLSVPYDSSLK [ABCC8_Y1353_R1352P]
group: Not fulfilled

###

# study-target: Jak2 (UniProt O60674)
# Sequence (O60674 whole entry, looked up): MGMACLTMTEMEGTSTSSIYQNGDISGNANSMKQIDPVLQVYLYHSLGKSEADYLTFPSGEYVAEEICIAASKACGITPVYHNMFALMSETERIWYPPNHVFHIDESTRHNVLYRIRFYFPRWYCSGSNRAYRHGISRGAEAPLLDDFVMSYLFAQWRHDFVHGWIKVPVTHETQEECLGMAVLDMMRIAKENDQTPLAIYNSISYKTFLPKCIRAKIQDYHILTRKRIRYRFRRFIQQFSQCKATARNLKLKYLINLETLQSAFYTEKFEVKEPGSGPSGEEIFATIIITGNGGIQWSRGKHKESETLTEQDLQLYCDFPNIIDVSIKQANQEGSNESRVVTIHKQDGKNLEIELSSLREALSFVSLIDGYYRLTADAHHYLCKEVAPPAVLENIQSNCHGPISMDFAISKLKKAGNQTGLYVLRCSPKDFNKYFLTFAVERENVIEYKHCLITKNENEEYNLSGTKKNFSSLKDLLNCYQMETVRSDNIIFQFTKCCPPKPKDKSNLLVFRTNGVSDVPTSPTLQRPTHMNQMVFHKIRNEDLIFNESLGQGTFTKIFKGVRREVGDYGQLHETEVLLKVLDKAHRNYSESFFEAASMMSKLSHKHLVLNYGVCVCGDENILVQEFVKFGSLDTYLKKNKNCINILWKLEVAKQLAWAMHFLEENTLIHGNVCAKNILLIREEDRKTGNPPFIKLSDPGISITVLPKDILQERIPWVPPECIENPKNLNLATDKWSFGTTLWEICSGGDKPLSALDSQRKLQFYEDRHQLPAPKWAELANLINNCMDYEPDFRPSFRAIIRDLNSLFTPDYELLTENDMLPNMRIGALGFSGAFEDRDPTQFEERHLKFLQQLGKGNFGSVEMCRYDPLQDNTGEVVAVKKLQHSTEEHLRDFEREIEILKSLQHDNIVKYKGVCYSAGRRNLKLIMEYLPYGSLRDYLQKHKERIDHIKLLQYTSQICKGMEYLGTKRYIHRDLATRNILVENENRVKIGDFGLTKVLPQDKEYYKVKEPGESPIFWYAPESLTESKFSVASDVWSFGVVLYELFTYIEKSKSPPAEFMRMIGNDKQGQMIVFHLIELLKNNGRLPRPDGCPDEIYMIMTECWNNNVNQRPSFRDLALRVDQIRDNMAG
# assay-comment: phosphorylation enrichment, bacterial display (enrichment ratio); higher = better substrate or ligand; peptides without Tyr show the background
Outcome label depends on phosphorylation enrichment relative to 1: at/above gives condition met, below gives condition not met.

residue-codes: TTSQPYRRLCS [USH2A_Y534_C536R]
study-target: Jak2 (UniProt O60674)
group: condition not met

residue-codes: HSVVQYVGGVM [FGGY_Y136_L134V]
study-target: Jak2 (UniProt O60674)
group: condition not met

residue-codes: MFNPCYGLFEY [NEDD4L_Y680_Y679C]
study-target: Jak2 (UniProt O60674)
group: condition met

residue-codes: MDDKEYYSVHN [MET_Y1234_Y1230D]
study-target: Jak2 (UniProt O60674)
group: condition met

residue-codes: YLRTGYSIPYG [TGM1_Y370_V372I]
study-target: Jak2 (UniProt O60674)
group: condition not met

residue-codes: YNDSTYNQQLI [ZPLD1_Y198]
study-target: Jak2 (UniProt O60674)
group: condition not met

residue-codes: VEDPEYAVTQL [STOML2_Y124]
study-target: Jak2 (UniProt O60674)
group: condition not met

residue-codes: KIVYVYVKKRS [DNAI2_Y7_E2K]
study-target: Jak2 (UniProt O60674)
group: condition met

residue-codes: DPADRYLTEQF [CDKL5_Y286_C291Y_YF]
study-target: Jak2 (UniProt O60674)
group: condition met

residue-codes: NNHGNYIVHLG [ETFDH_Y172_R175H]
study-target: Jak2 (UniProt O60674)
group: condition not met

residue-codes: DISEPYEVFRI [IRF8_Y107_K108E_YF]
study-target: Jak2 (UniProt O60674)
group: condition met

residue-codes: TRSFDYMEGED [FGF7_Y58_G62E_YF]
study-target: Jak2 (UniProt O60674)
group: condition met

residue-codes: PLDGEYFTLHI [TP53_Y327_Q331H]
study-target: Jak2 (UniProt O60674)
group: condition met

residue-codes: SSEYHYVGGFY [CTSC_Y347]
study-target: Jak2 (UniProt O60674)
group: condition met

residue-codes: SSTAMYSAPGR [PSMB1_Y8]
study-target: Jak2 (UniProt O60674)
group: condition not met

residue-codes: DLVRPYVHKIL [SF3B1_Y570]
study-target: Jak2 (UniProt O60674)
group: condition not met

residue-codes: IHETTYNSIMK [ACTA1_Y281]
study-target: Jak2 (UniProt O60674)
group: condition not met

residue-codes: YRKNIYNVKST [SYNE2_Y575]
study-target: Jak2 (UniProt O60674)
group: condition not met

residue-codes: DAANNYARGHY [TUBA3E_Y103_S101N]
study-target: Jak2 (UniProt O60674)
group: condition not met

residue-codes: MRALTYCDLHK [KCNH2_Y827_V822M]
study-target: Jak2 (UniProt O60674)
group: condition not met

residue-codes: KPPPSYESEEE [BRD4_Y599_T598S]
study-target: Jak2 (UniProt O60674)
group: condition met

residue-codes: FIAVGYVDDTQ [HLA-A_Y51]
study-target: Jak2 (UniProt O60674)
group: condition not met

###

# Test system: c-Src
# assay-comment: phosphorylation enrichment, bacterial display (enrichment ratio); higher = better substrate or ligand; peptides without Tyr show the background
Recorded phosphorylation enrichment, one value per entry.

residue-codes: QQLVAYFSKHT [SRC_Y232_A237T_YF]
phosphorylation enrichment: 0.513
--
residue-codes: QTLEAYIRCNK [SPAST_Y604_W607C]
phosphorylation enrichment: 0.372
--
residue-codes: LARDMCDKEFF [MET_Y1230_Y1230C_YF]
phosphorylation enrichment: 0.715
--
residue-codes: KLFFIYTSGTT [SLC27A4_Y245_YF]
phosphorylation enrichment: 0.345
--
residue-codes: FSIAQYCCRMG [LRRK2_Y2023_G2019S_YF]
phosphorylation enrichment: 0.425
--
residue-codes: AKRKNYAPVAM [CFAP47_Y557]
phosphorylation enrichment: 0.432
--
residue-codes: EERKTYVNTML [TEK_Y1102_T1106M]
phosphorylation enrichment: 0.362
--
residue-codes: FKIFRYTLNDN [FN1_Y1975_L1974R_YF]
phosphorylation enrichment: 0.36
--
residue-codes: TCRPPYYHRNC [HGD_Y333_F329C]
phosphorylation enrichment: 0.251
--
residue-codes: YDGKDYIALKE [HLA-A_Y147_N151K]
phosphorylation enrichment: 0.377
--
residue-codes: LECEWYKNGVK [TTN_Y2112_P2107L]
phosphorylation enrichment: 0.576
--
residue-codes: RHRSGYVLIAM [EFR3A_Y73]
phosphorylation enrichment: 0.284
--
residue-codes: HDRNTYEKYLE [TF_Y666_G671E]
phosphorylation enrichment: 0.995
--
residue-codes: AKKVFYVIETR [SHH_Y253]
phosphorylation enrichment: 0.412
--
residue-codes: HNLPIYEGFAL [ACTA1_Y168_V165L_YF]
phosphorylation enrichment: 9.44
--
residue-codes: EQLRAYLEGLC [HLA-C_Y183_T187L]
phosphorylation enrichment: 0.618
--
residue-codes: LREIRYQGGNR [VWF_Y1570_V1565L]
phosphorylation enrichment: 0.488
--
residue-codes: ASLLPYFPAIM [IPO4_Y518]
phosphorylation enrichment: 0.457
--
residue-codes: TKLKDYFIFNK [CCDC42_Y149_A144T_YF]
phosphorylation enrichment: 0.575
--
residue-codes: RPYVYYYSYLL [PTEN_Y177_R173P]
phosphorylation enrichment: 2.3
--
residue-codes: GCKKRYDKDKP [THAP1_Y14_N12K]
phosphorylation enrichment: 0.531
--
residue-codes: LVSCTYQLATG [FGFR2_Y608_R612T]
phosphorylation enrichment: 0.952
--
residue-codes: LDPMVYMNDKS [PTK2B_Y834]
phosphorylation enrichment: 0.669
--
residue-codes: DVCKNYTEAKD [ALB_Y343_A344T]
phosphorylation enrichment: 0.385
--
residue-codes: KFVKMCDNHQL [MYO9A_Y203_Y203C_YF]
phosphorylation enrichment: 0.441
--
residue-codes: FITVGYVDDTQ [HLA-B_Y51_S48T]
phosphorylation enrichment: 0.432
--
residue-codes: IVGLLYRLLTE [SETX_Y1978]
phosphorylation enrichment: 0.539
--
residue-codes: TQNGVYSAANF [DDX5_Y535_YF]
phosphorylation enrichment: 5.43
--
residue-codes: TGILLYGLASR [QARS1_Y57]
phosphorylation enrichment: 0.765
